- Tested System: Cytochrome P450 3A4 (Homo sapiens)
- Sequence (P08684 whole entry): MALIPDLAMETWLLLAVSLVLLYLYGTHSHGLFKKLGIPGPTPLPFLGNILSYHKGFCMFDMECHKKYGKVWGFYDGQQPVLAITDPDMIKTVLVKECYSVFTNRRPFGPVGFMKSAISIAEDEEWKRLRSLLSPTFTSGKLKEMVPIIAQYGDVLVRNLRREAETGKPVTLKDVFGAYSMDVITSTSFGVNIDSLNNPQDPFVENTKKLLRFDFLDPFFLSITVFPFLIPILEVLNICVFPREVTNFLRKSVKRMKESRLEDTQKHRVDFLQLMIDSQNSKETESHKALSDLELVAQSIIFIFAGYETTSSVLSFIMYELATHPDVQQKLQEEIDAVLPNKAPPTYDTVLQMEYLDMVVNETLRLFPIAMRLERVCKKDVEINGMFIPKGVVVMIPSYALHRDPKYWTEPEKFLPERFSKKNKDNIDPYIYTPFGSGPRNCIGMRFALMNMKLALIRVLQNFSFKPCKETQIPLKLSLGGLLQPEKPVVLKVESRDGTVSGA
- Assay Overview: Inhibition of CYP3A4 by time dependent inactivation assay; further: test concentration or dose not given here
- Type: ADME
Assign inhibition (INH) to each entry below.
Hi! Could you send only the number? It should be in %, unit omitted.

Q: Provide one value: measured inhibition (INH) of CC(C)(C)[C@H]1C(O)=C(C2=C(Cl)S(=O)(=O)c3cc(NS(C)(=O)=O)ccc3N2)C(=O)N1Cc1ccc(F)cc1
Result: 31

Q: Provide one value: measured inhibition (INH) of CC(C)(CO)[C@H]1C(O)=C(C2=CS(=O)(=O)c3cc(NS(C)(=O)=O)ccc3N2)C(=O)N1Cc1ccc(F)cc1
Result: 20.5

Q: Provide one value: measured inhibition (INH) of CC(C)(C)[C@H]1C(O)=C(C2=CS(=O)(=O)c3cc(C#N)ccc3N2)C(=O)N1Cc1ccc(F)cc1
Result: 10.9

Q: Provide one value: measured inhibition (INH) of CC(C)(C)[C@H]1C(O)=C(C2=CS(=O)(=O)c3cc([N+](=O)[O-])ccc3N2)C(=O)N1Cc1ccc(F)cc1
Result: 0.4

Q: Provide one value: measured inhibition (INH) of CC(C)(C)[C@H]1C(O)=C(C2=CS(=O)(=O)c3cc(NS(C)(=O)=O)ccc3N2)C(=O)N1Cc1ccc(F)cc1
Result: 41

Q: Provide one value: measured inhibition (INH) of CC(C)(C)[C@H]1C(O)=C(C2=CS(=O)(=O)c3cc(NS(C)(=O)=O)cc(F)c3N2)C(=O)N1Cc1ccc(F)cc1
Result: 8.5

Q: Provide one value: measured inhibition (INH) of CC(C)(C)[C@@H]1NC(=O)C(C2=CS(=O)(=O)c3cc(NS(C)(=O)=O)ccc3N2)=C1O
Result: 5.7

Q: Provide one value: measured inhibition (INH) of CC(=O)C1=C(C2=C(O)[C@H](C(C)(C)C)N(Cc3ccc(F)cc3)C2=O)Nc2ccc(NS(C)(=O)=O)cc2S1(=O)=O
Result: 15.1

Q: Provide one value: measured inhibition (INH) of CC(C)(C)[C@H]1C(O)=C(C2=C(C#N)S(=O)(=O)c3cc(NS(C)(=O)=O)ccc3N2)C(=O)N1Cc1ccc(F)cc1
Result: 24.7

Source listed as ChEMBL document CHEMBL1156005.
